# ASSAYED_SYSTEM: HLA-A*24:03 (Homo sapiens, UniProt P04439, D101N/D140Y/D185E/E176V/F33S/G103R/G107R/I119L/I121M/I306V/K335N/L105A/L180Q/L300P/N151K/N90K/Q86E/Q94H/R106L/R138H/R89G/T104I/T345S/V100E/Y123F)
# ASSAY_METHOD_TEXT: biochemical
# Assay type: binding
Where no end group is shown, it is not given here.
Field: label. Allowed values: fulfilled (Kd < 30 nM) or not fulfilled (Kd >= 30 nM).

sequence_content="WYGMEIRPL [Peptide 14612]" label="not fulfilled"
sequence_content="GFMNEDHWF [Peptide 14622]" label=fulfilled
sequence_content="TYGWNIVKL [Peptide 14623]" label="not fulfilled"
sequence_content="WYMWLGARF [Peptide 14613]" label=fulfilled
sequence_content="MALVAFLRF [Peptide 14610]" label=fulfilled
sequence_content="GFLNEDHWF [Peptide 14615]" label="not fulfilled"

====

# Lookup of reported Kd keyed by entry
# ASSAYED_SYSTEM: HLA-A*02:01 (Homo sapiens, UniProt P04439, D140Y/D185E/D98H/E176V/E277Q/G131W/G231S/I119V/I121R/I166T/I218V/L300P/L318F/N151K/N90K/P208A/P217A/Q86G/Q94H/R138H/R169H/T345S)
# ASSAY_METHOD_TEXT: biochemical
# Format: binding
Where no end group is shown, it is not given here.
MEASURED_METRIC: Kd (nM)

sequence_content="PLNEGIMAV [Peptide 14600]" readout_units=nM measured_result=48
sequence_content="YMPSVVETL [Peptide 14607]" readout_units=nM measured_result=1
sequence_content="KMDIGVPLL [Peptide 14598]" readout_units=nM measured_result=1
sequence_content="SMVNGVVKL [Peptide 14605]" readout_units=nM measured_result=25
sequence_content="SMVNGVVRL [Peptide 14599]" readout_units=nM measured_result=2
sequence_content="TLYAVATTV [Peptide 14606]" readout_units=nM measured_result=1
sequence_content="ILTDGPERV [Peptide 14602]" readout_units=nM measured_result=4
sequence_content="LLLTLLATV [Peptide 14597]" readout_units=nM measured_result=43
sequence_content="VLNPYMPTV [Peptide 14604]" readout_units=nM measured_result=1
